// data source = ChEMBL document CHEMBL5032498

Test system: enterovirus D68
Protocol: Anti-viral activity against Enterovirus D68 US/IL/14-18956 infected in human RD cells assessed as reduction in virus induced cytopathic effect incubated for 3 days by CPE assay
Assay type: functional, organism-based
Condition details: Enterovirus D, US/IL/14-18956, RD, 72 h
Value kind: EC50

{"Structure": "CC(C)c1cc(C(=O)NCCN(C)C)c2cnn(C(C)C)c2n1", "Experimental target": "enterovirus D68", "Measurement": "70 nM"}

Now examine the next entry.
Request: Recall and state the measured EC50 for `CNCCNC(=O)c1cc(C2CC2)nc2c1cnn2C(C)C` .
Response: 200 nM

----------
Protocol: Selectivity index, ratio of CC50 for human RD cells to EC50 for Enterovirus A71 Tainan/4643/1998 in human RD cells
Assay type: toxicity, cell-based
Condition details: read-out: Ratio CC50/EC50
Catalogue of selectivity ratio readings, one per entry.

{"Compound": "CNCCNC(=O)c1cc(C(C)C)nc2c1cnn2C(C)C", "Measurement": "> 1000"}

Request: Recall and state the measured selectivity ratio for CC(CN(C)C)NC(=O)c1cc(C(C)C)nc2c1cnn2C(C)C (stereo unspecified) .
Response: > 100

Request: Recall and state the measured selectivity ratio for `Cc1cc(C(=O)NCCN)c2cnn(C(C)C)c2n1` .
Response: > 429

Request: Recall and state the measured selectivity ratio for `Cc1cc(C(=O)NC2CN(C)C2)c2cnn(C(C)C)c2n1` .
Response: > 41.1

Request: Recall and state the measured selectivity ratio for Cc1cc(C(=O)NC2CCN(C)C2)c2cnn(C(C)C)c2n1 (stereo unspecified) .
Response: > 600

Request: Recall and state the measured selectivity ratio for `CNCCNC(=O)c1cc(C)nc2c1cnn2C(C)C` .
Response: > 600
